Test system: BT-549 breast
protocolText: NCI tumour cell line growth inhibition, 48 h
property: TGI (µM)
Reply numerically in µM, unit not repeated.

Prompt line: # return recorded TGI for input `CC(C)=CC/C=C(/C)[C@H]1CC[C@]2(C)[C@@H]1CC[C@@H]1[C@@]3(C)CCCNC(C)(C)[C@@H]3CC[C@]12C`
Response line: 32.5

Prompt line: # return recorded TGI for input `COc1cc(OC)c(-c2ccc(OCc3ccccc3)c3c(OC)cc(C)cc23)c2c1C(C)=N[C@H](C)C2`
Response line: 7.93

Prompt line: # return recorded TGI for input `CN1CCN(CCOc2ccc(-c3cnc4c(-c5ccccc5F)cnn4c3)cc2)CC1`
Response line: 3.77

Prompt line: # return recorded TGI for input `COc1cnc2c(c1)C(=O)c1c-2n(CCCNC(C)C)c(=O)c2cc(Cl)ccc12`
Response line: 2.59

Prompt line: # return recorded TGI for input `CCCn1c2ccccc2c2ccc3c(c21)C(=O)C=CC3=O`
Response line: 4.9

Prompt line: # return recorded TGI for input `O=C1NC(=O)C(c2cnc3ccccn23)=C1c1cn2c3c(cc(F)cc13)CN(C(=O)N1CCCCC1)CC2`
Response line: 45

Prompt line: # return recorded TGI for input Nc1ccc2c(c1)N(C(=O)c1cc3cc(NC(=O)c4cc5ccccc5o4)ccc3[nH]1)CC2CCl (centres undefined)
Response line: 1.9

---

Test system: CCRF-CEM leukemia
protocolText: NCI tumour cell line growth inhibition, 48 h; in the data active = GI50 below about 0.43 µM; inactive = the rest
Please answer using one outcome listed in active, inactive

Prompt line: What outcome does the record of this test show for `N#CC(=C1C=CC(=NO)C=C1)c1ccccc1` ?
Response line: inactive

Prompt line: What outcome does the record of this test show for CCCCCCCCCCCCOC1C(C(COC2OC(C3COC(C)(C)O3)C3OC(C)(C)OC23)NC(=O)Nc2ccc(C(=O)O)cc2)OC2OC(C)(C)OC21 (stereo unspecified) ?
Response line: active

Prompt line: What outcome does the record of this test show for `COc1cnc2c(c1)C(=O)c1c-2n(CCCNC(C)C)c(=O)c2cc(Cl)ccc12` ?
Response line: active

Prompt line: What outcome does the record of this test show for `Cc1cc(I)cc(CN(C)CCCN2CCCCCCC2)c1O` ?
Response line: inactive

Prompt line: What outcome does the record of this test show for `O=C(Nc1ccc(Cl)cc1F)c1ccccc1O` ?
Response line: inactive

Prompt line: What outcome does the record of this test show for CCC[CH2][Sn]1([CH2]CCC)[O]N=C(c2ccccc2)C(c2ccccc2)[O]1 (stereo unspecified) ?
Response line: active

---

Test system: SNB-75 CNS
protocolText: NCI tumour cell line growth inhibition, 48 h
property: TGI

Prompt line: # return recorded TGI for input `C/C(=N\NC(=S)N1CCCCC1)c1nc2ncccc2[nH]1`
Response line: > 100 µM

Prompt line: # return recorded TGI for input `Nc1ccc(-c2nc3cc(F)ccc3s2)cc1Cl`
Response line: 51.8 µM

Prompt line: # return recorded TGI for input `Cc1ccc(S(=O)(=O)N(CC(=O)O)c2ccccc2)cc1`
Response line: > 100 µM

Prompt line: # return recorded TGI for input CC1=NNC(=O)C2CCC(=O)N12 (stereo unspecified)
Response line: > 100 µM

Prompt line: # return recorded TGI for input COc1ccc(C(=O)C(c2ccc(OC)cc2)C2(O)C(=O)Nc3ccc([N+](=O)[O-])cc32)cc1 (stereo unspecified)
Response line: > 100 µM

Prompt line: # return recorded TGI for input CN(C)/C=N/c1nc2c(ncn2C2OC(CO)C(O)C2O)c(=O)[nH]1 (stereo unspecified)
Response line: > 100 µM

Prompt line: # return recorded TGI for input `CCCC(=O)n1[nH]c(=O)n(-c2ccc(Cl)cc2)c1=O`
Response line: > 100 µM

Prompt line: # return recorded TGI for input `Cc1ccc(Cc2c(=O)[nH]nc3ccccc23)cc1`
Response line: > 100 µM

Prompt line: # return recorded TGI for input `Cn1c2ccccc2c2c3c(c4c5cc(Br)ccc5n(C)c4c21)C(=O)N(O)C3=O`
Response line: 0.659 µM

Prompt line: # return recorded TGI for input `OC[C@H]1C[C@](O)(c2ccc(Cl)cc2)[C@@H](c2ccc(Cl)cc2)O1`
Response line: 87.7 µM

Prompt line: # return recorded TGI for input `NS(=O)(=O)c1ccc(N=Nc2nc3[nH]c(=O)[nH]c(=O)c3[nH]2)cc1`
Response line: > 100 µM
